- assayed target: T1, SIKE1 CC1 (residues 5–65) (human, UniProt Q9BRV8 5-65)
- T1 construct: SIKE1, human, residues 5-65; Homodimer within the 2:2 crystal complex; also called residues 5–65 of SIKE1; source: E. coli BL21 (DE3) CodonPlus, purified
- T1 sequence (looked up): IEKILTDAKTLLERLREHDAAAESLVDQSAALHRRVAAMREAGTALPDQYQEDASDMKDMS
- procedure summary: not stated; Kd of the minimal regions, Supplementary Fig. S7c; method not given
- condition info: both partners purified
measured attribute: Kd (µM)
Return type: number; implicit unit µM.

query: Consider the binder shown here: SLMAP CC1 (residues 167–226) (domain or fragment, human, UniProt Q14BN4 167-226, looked up, Homodimer within the 2:2 crystal complex; source: E. coli BL21 (DE3) CodonPlus, purified) QLSQYLQEALHREQMLEQKLATLQRLLAITQEASDTSWQALIDEDRLLSRLEVMGNQLQA What is its recorded Kd?
result: 6.9
